biological target: Recombinant human TNFRI, disulfide-linked homodimer (human, UniProt P19438 30-455); test: ITC; VP-ITC calorimeter; peptide serially diluted and injected; KD by Microcal ORIGIN Ver. 5.0; method by refs 48, 49; conditions: both partners purified
OBSERVABLE: Kd (nM)
All answers are understood in nM, so give the number only.

Lookup: Entry MWQRPSSWIEGRLLTHTISRIAVSYQTKVNLL (P16, TNF α segment of amino acid residues 75-94, human; also called recombinant peptide RMP16) [RMP16, recombinant TNF α-derived polypeptide] needs its Kd filled in; supply it.
Found: 20.4
